Measured pIC50 values are reported for all entries that follow.
System: Cryptococcus neoformans
Assay: Antifungal activity against Cryptococcus neoformans ATCC 90113 by CLSI method
Format: functional, organism-based
Conditions: read-out: IC50
pIC50: −log10 of the molar value.

# compound, pIC50
records = [
    ("Brc1ccccc1CSc1cc2ccccc2[n+](CCCCCC2CCCCC2)c1.[I-]", 5.95),
    ("COc1ccc(CSc2cc3ccccc3[n+](CCCCCC3CCCCC3)c2)cc1.[I-]", 5.67),
    ("Fc1cccc(CSc2cc3ccccc3[n+](CCCCCC3CCCCC3)c2)c1.[I-]", 6.15),
    ("C[C@@H]1[C@H](O)[C@@H](C)/C=C/C=C/C=C/C=C/C=C/C=C/C=C/[C@H](O[C@@H]2O[C@H](C)[C@@H](O)[C@H](N)[C@@H]2O)C[C@@H]2O[C@](O)(C[C@@H](O)C[C@@H](O)[C@H](O)CC[C@@H](O)C[C@@H](O)CC(=O)O[C@H]1C)C[C@H](O)[C@H]2C(=O)O", 6.37),
    ("[I-].c1ccc(CSc2cc3ccccc3[n+](CCCCCC3CCCCC3)c2)cc1", 6.52),
    ("Cc1ccc(CSc2cc3ccccc3[n+](CCCCCC3CCCCC3)c2)cc1.[I-]", 6.34),
    ("[I-].[O-][S+](c1cc2ccccc2[n+](CCCCCc2ccccc2)c1)c1ccccc1Br (configuration not stated)", 5.04),
    ("Clc1ccc(CSc2cc3ccccc3[n+](CCCCCC3CCCCC3)c2)cc1.[I-]", 7.06),
    ("COc1cccc(CSc2cc3ccccc3[n+](CCCCCC3CCCCC3)c2)c1.[I-]", 6.22),
    ("[I-].[O-][S+](c1ccc(Br)cc1)c1cc2ccccc2[n+](CCCCCc2ccccc2)c1 (configuration not stated)", 4.83),
    ("Brc1cccc(CSc2cc3ccccc3[n+](CCCCCC3CCCCC3)c2)c1.[I-]", 6.44),
    ("[I-].[O-][S+](c1cccc(C(F)(F)F)c1)c1cc2ccccc2[n+](CCCCCc2ccccc2)c1 (configuration not stated)", 4.96),
    ("FC(F)(F)c1ccc(CSc2cc3ccccc3[n+](CCCCCC3CCCCC3)c2)cc1.[I-]", 6.38),
    ("Oc1cccc(Sc2cc3ccccc3[n+](CCCCCC3CCCCC3)c2)c1.[I-]", 5.63),
    ("Fc1ccc(CSc2cc3ccccc3[n+](CCCCCC3CCCCC3)c2)cc1.[I-]", 6.17),
    ("FC(F)(F)c1ccccc1Sc1cc2ccccc2[n+](CCCCCC2CCCCC2)c1.[I-]", 5.43),
    ("CC(C)(C)c1ccc(CSc2cc3ccccc3[n+](CCCCCC3CCCCC3)c2)cc1.[I-]", 6.05),
]
